The reported measurements were obtained from patent US12404295B2.

biological target: human Gal-3 (hGal-3) (Homo sapiens (Human)); test: competitive binding assay: biotinylated hGal-3 binding to microplate-adsorbed asialofetuin (ASF); conditions: Table 10; 2-OMe-Gal inhibitors; read-out: IC50 (Gal-3 inhibition)
Sequence (P17931 whole entry): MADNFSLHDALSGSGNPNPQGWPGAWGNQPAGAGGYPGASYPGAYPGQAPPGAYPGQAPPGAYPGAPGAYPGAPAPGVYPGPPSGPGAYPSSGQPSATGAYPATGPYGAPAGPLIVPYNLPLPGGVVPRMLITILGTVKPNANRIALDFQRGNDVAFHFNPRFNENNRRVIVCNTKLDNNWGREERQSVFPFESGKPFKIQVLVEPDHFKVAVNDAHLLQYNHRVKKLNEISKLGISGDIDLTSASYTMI
readout.name: IC50 (nM)

Field: example entries. Status: answers known.
[[record]]
molecule = "CO[C@@H]1[C@@H](n2cc(-c3cc(F)c(F)c(F)c3)nn2)[C@@H](O)[C@@H](CO)O[C@H]1S[C@H](c1nocc1C)C1(O)CCCCC1 [Example 2.39.120R.I.]"
readout_name = "IC50"
scale_unit = "nM"
experimental_result = 250

[[record]]
molecule = "CO[C@@H]1[C@@H](n2cc(-c3cc(F)c(F)c(F)c3)nn2)[C@@H](O)[C@@H](CO)O[C@H]1S[C@H](c1c(C)cnn1C)C1(O)CCC(F)(F)CC1 [Example 2.44.136R.I.]"
readout_name = "IC50"
scale_unit = "nM"
experimental_result = 260

[[record]]
molecule = "CO[C@@H]1[C@@H](n2cc(-c3cc(F)c(F)c(F)c3)nn2)[C@@H](O)[C@@H](CO)O[C@H]1S[C@@H](c1nccnc1Cl)C1(O)CCC(F)(F)CC1 [Example 2.44.133S.I.]"
readout_name = "IC50"
scale_unit = "nM"
experimental_result = 2710


a: CCn1nnc(C)c1C(S[C@@H]1O[C@H](CO)[C@H](O)[C@H](n2cc(-c3cc(F)c(F)c(F)c3)nn2)[C@H]1OC)C1(O)CCC(F)(F)CC1 (some centres unmarked)
b: CCc1onc([C@@H](S[C@@H]2O[C@H](CO)[C@H](O)[C@H](n3cc(-c4cc(F)c(F)c(F)c4)nn3)[C@H]2OC)C2(O)CCC(F)(F)CC2)c1C [Example 2.44.140R.I.]
Problem: Which shows the larger IC50 value: a or b ? Your choice should be expressed through its label.
Result: a

* * *

Target or system human Gal-1 (hGal-1) (Homo sapiens (Human), UniProt P09382): recorded IC50 listed per item.
readout.name: IC50 (µM)

Field: example entries. Status: answers known.
[[record]]
compound = "CO[C@@H]1[C@@H](n2cc(-c3cc(F)c(F)c(F)c3)nn2)[C@@H](O)[C@@H](CO)O[C@H]1S[C@H](c1ccccc1C1CC1)C1(O)CCC(F)(F)CC1 [Example 2.44.106R.I.]"
system_name = "human Gal-1 (hGal-1) (Homo sapiens (Human), UniProt P09382)"
readout_name = "IC50"
experimental_result = 0.21

[[record]]
compound = "CO[C@@H]1[C@@H](n2cc(-c3cc(F)c(F)c(F)c3)nn2)[C@@H](O)[C@@H](CO)O[C@H]1S[C@H](c1ncccc1C)C1(O)CCS(=O)(=O)CC1 [Example 2.66.126R.I.]"
system_name = "human Gal-1 (hGal-1) (Homo sapiens (Human), UniProt P09382)"
readout_name = "IC50"
experimental_result = 0.09

[[record]]
compound = "OC[C@H]1O[C@@H](SC(c2ncccc2C(F)(F)F)C2(O)CCCC2)[C@H](O)[C@@H](n2cc(-c3cc(F)c(F)c(F)c3)nn2)[C@H]1O (stereo partly drawn) [Example 2.38.125.]"
system_name = "human Gal-1 (hGal-1) (Homo sapiens (Human), UniProt P09382)"
readout_name = "IC50"
experimental_result = 0.76

[[record]]
compound = "CCC(O)(CC)[C@@H](S[C@@H]1O[C@H](CO)[C@H](O)[C@H](n2cc(-c3cc(F)c(F)c(F)c3)nn2)[C@H]1O)c1conc1C [Example 2.32.120S.]"
system_name = "human Gal-1 (hGal-1) (Homo sapiens (Human), UniProt P09382)"
readout_name = "IC50"
experimental_result = 77.4

[[record]]
compound = "Cc1ccccc1[C@H](S[C@@H]1O[C@H](CO)[C@H](O)[C@H](n2cc(-c3cc(F)c(F)c(F)c3)nn2)[C@H]1O)C1(O)CC(C)C1 (stereo partly drawn) [Example 2.36.102S.]"
system_name = "human Gal-1 (hGal-1) (Homo sapiens (Human), UniProt P09382)"
readout_name = "IC50"
experimental_result = 54.2

[[record]]
compound = "Cc1nc(C)c([C@H](S[C@@H]2O[C@H](CO)[C@H](O)[C@H](n3cc(-c4cc(F)c(F)c(F)c4)nn3)[C@H]2O)C(C)(C)O)nc1C [Example 2.31.119S.]"
system_name = "human Gal-1 (hGal-1) (Homo sapiens (Human), UniProt P09382)"
readout_name = "IC50"
experimental_result = 18.4

[[record]]
compound = "CO[C@@H]1[C@@H](n2cc(-c3cc(F)c(F)c(F)c3)nn2)[C@@H](O)[C@@H](CO)O[C@H]1S[C@@H](c1nccnc1Cl)C1(O)CCC(F)(F)CC1 [Example 2.44.133S.I.]"
system_name = "human Gal-1 (hGal-1) (Homo sapiens (Human), UniProt P09382)"
readout_name = "IC50"
experimental_result = 7.54

[[record]]
compound = "CO[C@@H]1[C@@H](n2cc(-c3cc(F)c(F)c(F)c3)nn2)[C@@H](O)[C@@H](CO)O[C@H]1S[C@H](c1ccccc1C(F)(F)F)[C@]1(O)CCOC(C)(C)C1 [Example 2.43.112RS.I.]"
system_name = "human Gal-1 (hGal-1) (Homo sapiens (Human), UniProt P09382)"
readout_name = "IC50"
experimental_result = 1.3

[[record]]
compound = "CC(C)c1ccccc1[C@H](S[C@@H]1O[C@H](CO)[C@H](O)[C@H](n2cc(-c3cc(F)c(F)c(F)c3)nn2)[C@H]1O)C(C)(C)O [Example 2.31.105S.]"
system_name = "human Gal-1 (hGal-1) (Homo sapiens (Human), UniProt P09382)"
readout_name = "IC50"
experimental_result = 65.1

[[record]]
compound = "Cc1c(F)cccc1[C@H](S[C@@H]1O[C@H](CO)[C@H](O)[C@H](n2cc(-c3cc(F)c(F)c(F)c3)nn2)[C@H]1O)C(C)(C)O [Example 2.31.114S.]"
system_name = "human Gal-1 (hGal-1) (Homo sapiens (Human), UniProt P09382)"
readout_name = "IC50"
experimental_result = 40.9


a: CN1CCC(O)([C@@H](S[C@@H]2O[C@H](CO)[C@H](O)[C@H](n3cc(-c4cc(F)c(F)c(F)c4)nn3)[C@H]2O)c2ncccc2C(F)(F)F)CC1 [Example 2.40.125S.]
b: Cc1noc(C2CC2)c1[C@H](S[C@@H]1O[C@H](CO)[C@H](O)[C@H](n2cc(-c3cc(F)c(F)c(F)c3)nn2)[C@H]1O)C1(O)CCCCC1 [Example 2.39.128S.]
Problem: Which shows the larger IC50 value: a or b ? Your choice should be expressed through its label.
Result: b
